Test: qHTS RealTime-Glo MT Cell Viability Assay in HepG2 cells - 24 hour (AID 1224867); also: nearly all actives have a fitted effect of over 50% in size
Details: RealTime-Glo luminescence; series mostly up to 76.8 µM
Results filed as inconclusive are left out. The source made the active and inactive calls. Calls follow the shape of the dose curve; as a rule, active = well fitted cell-killing curve with a large enough effect in the repeat runs; inconclusive = weak or mixed curves; inactive = flat fitted curve, though single readings scatter.
Write down the outcome that applies. Available outcomes: active, inactive

What outcome does the record of this test show for "OCCN1CCN(CC/C=C2/c3ccccc3Sc3ccc(C(F)(F)F)cc32)CC1" ?
active

====

Assay: qHTS assay to identify small molecule that activate the aryl hydrocarbon receptor (AhR) signaling pathway - cell viability counter screen (AID 743086); also: nearly all actives have a fitted effect of over 45% in size
Conditions: HepG2-AhR-luc viability, CellTiter-Fluor, 24 h; series mostly up to 70.3 µM
Records with an inconclusive call do not appear. Activity calls are given as the source filed them. Calls come from the whole dose curve; as a rule, active = well fitted cell-killing curve with a large enough effect in the repeat runs; inconclusive = weak or mixed curves, or effect the other way; inactive = flat fitted curve, though single readings scatter.
Field 'call' accepts true = active, false = inactive

Which outcome was assigned to "O=C(O)c1c(Cl)cccc1Cl" in this test?
false

How did this test come out for "Nc1ccc(N)c2ccccc12" ?
true

Query: recorded result category for "C=C(C)C(=O)OCC[N+](C)(C)C" in this test
false

Check the results log: what was the call for CCC(C)Nc1ccc(NC(C)CC)cc1 (configuration not stated) ?
true

What is the recorded call for this molecule in the test? "O=S1(=O)CC(Cl)(Cl)C(Cl)(Cl)C1"
true
